- target-under-test: human α7 nAChR stably expressed in a HEK cell line (with human RIC-3) (Homo sapiens)
- Construct: PrecisION hnAChR α7/RIC-3
- Sequence (P36544 23-502): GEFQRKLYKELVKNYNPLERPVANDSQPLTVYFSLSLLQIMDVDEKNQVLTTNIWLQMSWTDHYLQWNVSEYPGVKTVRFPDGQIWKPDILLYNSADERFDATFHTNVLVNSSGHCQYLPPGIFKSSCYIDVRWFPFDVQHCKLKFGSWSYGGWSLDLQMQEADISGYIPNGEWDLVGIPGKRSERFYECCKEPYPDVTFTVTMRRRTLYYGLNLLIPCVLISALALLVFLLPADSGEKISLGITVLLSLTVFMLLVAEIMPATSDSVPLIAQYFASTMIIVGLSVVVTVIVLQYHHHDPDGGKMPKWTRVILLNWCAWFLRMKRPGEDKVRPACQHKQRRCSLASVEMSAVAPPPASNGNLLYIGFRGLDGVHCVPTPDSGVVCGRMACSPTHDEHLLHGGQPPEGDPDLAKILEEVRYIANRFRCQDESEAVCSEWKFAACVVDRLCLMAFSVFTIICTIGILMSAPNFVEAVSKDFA
- assay-overview: Automated patch-clamp electrophysiology functional assay (Assay A), IonFlux HT, whole-cell population patch
- Type: cell-based
- cond: automated patch-clamp electrophysiology functional assay (Assay A); potency class by EC50; read-out: α7 nAChR Potency
Please provide measured EC50 for the entries that follow.

*Q* Please report the recorded EC50 for NS(=O)(=O)c1ccc([C@@H]2C[C@H]2c2nc(-c3ccccc3)c[nH]2)cc1 .
*A* 5000 to 50000 nM

*Q* One more compound: CC1(C)[C@@H](c2ccc(S(N)(=O)=O)cc2)[C@@H]1c1noc(-c2nc(-c3ccc(F)cc3)c[nH]2)n1
*A* 500 to 5000 nM

*Q* One more compound: CC1(C)[C@@H](c2ccc(S(N)(=O)=O)cc2)[C@@H]1c1noc(Cn2c(=O)oc3ccc(Cl)cc32)n1
*A* 500 to 5000 nM

*Q* One more compound: CC1(C)[C@@H](c2ccc(S(N)(=O)=O)cc2)[C@@H]1c1nnc(-c2cccc(C(F)(F)F)c2)o1
*A* 500 to 5000 nM

*Q* One more compound: CC1(C)[C@@H](c2ccc(S(N)(=O)=O)cc2)[C@@H]1c1noc(-c2cccc(C3CC3)c2)n1
*A* 500 to 5000 nM

*Q* One more compound: NS(=O)(=O)c1ccc([C@H]2[C@H](c3ncc(C4CCCC4)o3)C2(F)F)cc1
*A* 100 to 500 nM

*Q* One more compound: CC1(C)[C@@H](c2ccc(S(N)(=O)=O)cc2)[C@@H]1c1nc(C2CCCCC2)no1
*A* 100 to 500 nM

*Q* One more compound: Cn1cc([C@H]2[C@H](c3ccc(S(N)(=O)=O)cc3)C2(C)C)nc1-c1cccc(F)c1
*A* 500 to 5000 nM

*Q* One more compound: NS(=O)(=O)c1ccc([C@@H]2C[C@H]2c2nc(-c3cccc(Br)c3)no2)cc1
*A* 500 to 5000 nM

*Q* One more compound: CC1(C)[C@@H](c2ccc(S(N)(=O)=O)cc2)[C@@H]1c1noc(-c2cc(F)cc(F)c2F)n1
*A* 100 to 500 nM

*Q* One more compound: CC(C)(C)c1cnc([C@@H]2C[C@H]2c2ccc(S(N)(=O)=O)cc2)o1
*A* 500 to 5000 nM

*Q* One more compound: CC1(C)[C@@H](c2ccc(S(N)(=O)=O)cc2)[C@@H]1c1noc(-c2cccc3c2OCC(=O)N3)n1
*A* 500 to 5000 nM

*Q* One more compound: NS(=O)(=O)c1ccc([C@@H]2C[C@H]2c2cn(-c3cccc(F)c3)nn2)cc1
*A* 500 to 5000 nM

Data origin, for the record: patent US9840481B2
